Reported TGI by item:
tested on: BT-549 breast; assay: NCI tumour cell line growth inhibition, 48 h

Input line: Which measured TGI value corresponds to NS(=O)(=O)c1cc(Br)c(N=Nc2ccc(O)c3ncccc23)c(Br)c1 ?
Output line: > 100 µM

----------
test system: SF-295 CNS; assay: NCI tumour cell line growth inhibition, 48 h
Reported TGI by item:

// solved cases for TGI follow
Input line: Which measured TGI value corresponds to Cc1cc(I)cc(CN(C)CCCN2CCCCC2)c1O ?
Output line: 12.9 µM

Input line: Which measured TGI value corresponds to N#CC(C#N)=CNC(N)=S ?
Output line: > 100 µM

Continuing:
Input line: Which measured TGI value corresponds to CC1CCC(C(=O)O)(C(Br)C(=O)O)CC1 (centres undefined) ?
Output line: > 100 µM

Input line: Which measured TGI value corresponds to C=C1NC(=O)C(C(C)CC)NC(=O)C2CSCC(NC(=O)CCC(=O)O)C(=O)NC(Cc3ccccc3)C(=O)NC(C)C(=O)NC(CC(C)CC)C(=O)NC(C(=O)NC(Cc3ccccc3)C(=O)N3CCCC3C(=O)N2)C(C)OC(=O)C(CO)NC(=O)C(C(O)COC)N(C)C(=O)C(C(C)C)NC(=O)C(CC(C)CC)NC1=O (centres undefined) ?
Output line: > 6 µM

----------
system: COLO 205 colon; experiment: NCI tumour cell line growth inhibition, 48 h; in the data active = GI50 below about 0.43 µM; inactive = the rest
Field 'call' accepts active, inactive

Worked examples follow.
Input line: Entry COc1cccc(-c2nc(-c3ccc(NC(=O)C(C)C)cc3)[nH]c2-c2ccnc(Br)c2)c1 : call = ?
Output line: inactive

Input line: Entry CC(C)[C@H]1COC(=O)N1[C@@H]1C(=O)N([C@@H](CCC(=O)N2CCN(C3CCCC3)CC2)C(=O)N[C@@H]2CCCc3ccccc32)[C@@H]1/C=C/c1cccc(Br)c1 : call = ?
Output line: inactive

Continuing:
Input line: Entry OC(c1cc(-c2ccc(C(F)(F)F)cc2)nc(-c2ccc(C(F)(F)F)cc2)c1)C1CCCCN1 (stereo not given) : call = ?
Output line: inactive

----------
test system: SK-MEL-2 melanoma; assay: NCI tumour cell line growth inhibition, 48 h
endpoint label: GI50

// solved cases for GI50 follow
Input line: Which measured GI50 value corresponds to Cc1cc(I)cc(CN(C)CCCN2CCCCC2)c1O ?
Output line: 18.4 µM

Input line: Which measured GI50 value corresponds to CCCCCCCC(=O)SCC/C=C/[C@@H]1CC(=O)NCc2cc(ccn2)C2=N[C@@](C)(CS2)C(=O)N[C@@H](C(C)C)C(=O)O1 ?
Output line: 0.015 µM

Input line: Which measured GI50 value corresponds to COc1ccc([C@H]2[C@@H](F)C(=O)N2c2cc(OC)c(OC)c(OC)c2)cc1F ?
Output line: 0.303 µM

Input line: Which measured GI50 value corresponds to O=C(/C=C/c1ccc(Cl)cc1)c1ccc(Nc2ccnc3cc(Cl)ccc23)cc1 ?
Output line: > 100 µM

Input line: Which measured GI50 value corresponds to O=C(Nc1ccc(Cl)cc1)c1cccc(NC2=C(Cl)C(=O)N(Cc3ccccc3)C2=O)c1 ?
Output line: 14.9 µM

Continuing:
Input line: Which measured GI50 value corresponds to COc1cc2c3c(n(C)c(=O)c2cc1OC)-c1cc2c(cc1/C3=C\CCCN)OCO2 ?
Output line: 16.6 µM
